Target: human TGR5 (Homo sapiens)
Construct: expressed in transfected cells; host or cells: HEK293
Test: Cell-based TGR5 assay (cAMP generation, HTRF)
Conditions: HEK293 cells stably transfected with human TGR5; cAMP by HTRF; 30 minutes at 37° C.; read-out: pEC50 Human TGR5 (converted)
Can you tell me EC50 for the items I'm about to list?

IN: In one line, give reported EC50 of the entry "O=C([C@@H](O)[C@@H](O)[C@H](O)[C@@H](O)CO)N(CCCCCSc1ccc(Cl)c(COC2(c3cnccc3-c3ccccc3OC3CC3)CC2)c1)CCOCCO" .
OUT: < 100 nM

IN: Give the value of EC50 reported for the following: "Cc1cc(COC2(c3cnccc3-c3ccccc3OC3CC3)CC2)c(Cl)cc1CCCCN(C)C(=O)[C@@H](O)[C@@H](O)[C@H](O)[C@@H](O)CO"
OUT: < 100 nM

IN: Give me measured EC50, please, for this compound: CC(CCCC(=O)NCCN1CCN(C(=O)NC[C@H](O)[C@@H](O)[C@H](O)[C@H](O)CO)CC1)c1ccc(Cl)c(CN(C(=O)NC[C@H](O)[C@@H](O)[C@H](O)[C@H](O)CO)C2(c3cnccc3-c3ccccc3OC3CC3)CC2)c1 (some centres unmarked)
OUT: 1260 to 10000 nM

IN: Give the measured EC50 for "CN(CCCCCSc1ccc(Cl)c(CNC2(c3cnccc3-c3ccccc3OC3CC3)CC2)c1)C(=O)[C@@H](O)[C@@H](O)[C@H](O)[C@@H](O)CO"
OUT: < 100 nM

IN: Entry "CSc1ccc(C)c(CNC2(c3cnccc3-c3ccccc3OC3CC3)CC2)n1" needs its EC50 filled in; supply it.
OUT: < 100 nM

* * *

Biological target: human TGR5 (Homo sapiens, UniProt Q8TDU6)
Construct: expressed in transfected cells; host or cells: HEK293
Sequence (Q8TDU6 1-330): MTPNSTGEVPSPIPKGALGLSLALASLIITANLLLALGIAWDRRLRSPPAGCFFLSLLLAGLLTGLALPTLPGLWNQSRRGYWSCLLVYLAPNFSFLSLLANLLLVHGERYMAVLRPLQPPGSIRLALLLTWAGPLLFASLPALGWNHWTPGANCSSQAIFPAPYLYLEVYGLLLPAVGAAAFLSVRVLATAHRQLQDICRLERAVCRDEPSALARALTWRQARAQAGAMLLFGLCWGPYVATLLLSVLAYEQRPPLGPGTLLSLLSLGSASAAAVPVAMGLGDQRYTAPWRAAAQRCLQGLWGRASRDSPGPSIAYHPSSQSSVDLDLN
Experiment: Cell-based TGR5 assay (cAMP generation, HTRF)
Conditions: HEK293 cells stably transfected with human TGR5; cAMP by HTRF; 30 minutes at 37° C.; read-out: pEC50 Human TGR5 (converted)
Measured Quantity: EC50

IN: Check human TGR5 (Homo sapiens, UniProt Q8TDU6) data and give EC50 for "C=C(CCCNC(=O)NC[C@H](O)[C@@H](O)[C@H](O)[C@H](O)CO)c1ccc(Cl)c(CNC2(c3cnccc3-c3ccccc3OC3CC3)CC2)c1" .
OUT: < 100 nM

IN: Find the measured EC50 of CC(CCCC(=O)N(C[C@@H](O)[C@H](O)[C@@H](O)[C@@H](O)CO)[C@H]1CC[C@@H](O)CC1)c1ccc(Cl)c(CNC2(c3cnccc3-c3ccccc3OC3CC3)CC2)c1 (some centres unmarked) with human TGR5 (Homo sapiens, UniProt Q8TDU6) as test system.
OUT: < 100 nM

IN: GET EC50 where system = human TGR5 (Homo sapiens, UniProt Q8TDU6) and item = "CS(=O)(=O)NCCCCN(CCCSc1ccc(Cl)c(COC2(c3cnccc3-c3ccccc3OC3CC3)CC2)c1)C(=O)[C@@H](O)[C@@H](O)[C@H](O)[C@@H](O)CO"
OUT: 126 to 1000 nM

IN: Would you please give the reported EC50 of "CN(C[C@H](O)[C@@H](O)[C@H](O)[C@H](O)CO)C(=O)CC1(CSc2ccc(Cl)c(CNC3(c4cnccc4-c4ccccc4OC4CC4)CC3)c2)CC1" with human TGR5 (Homo sapiens, UniProt Q8TDU6)?
OUT: < 100 nM

IN: State the measured EC50 (human TGR5 (Homo sapiens, UniProt Q8TDU6)) of "O=C(O)CCN(C[C@H](O)[C@@H](O)[C@H](O)[C@H](O)CO)C(=O)CCCCc1cc(Cl)c(CNC2(c3cnccc3-c3ccccc3OC3CC3)CC2)cc1Cl"
OUT: 126 to 1000 nM
